All figures here come from patent US20180171001A1.

experimental target: Env of HIV-1 strain REJO4541.67 (HIV-1)
test description: cell-based or functional assay

{"binder": "γ8κ11 (antibody, V domains shown) VH: QIHLVQSGTGVKKPGSSVTVSCKAYGVNTFGLYAVNWVRQAPGQGLEYIGQIWRWKSSASHHFRGRVLISAVDLTGSSPPITSLEIKNVTSDDTAVYFCTTTSTYDKWSGLYHDGVMAFSSWGQGTLISVSA VL: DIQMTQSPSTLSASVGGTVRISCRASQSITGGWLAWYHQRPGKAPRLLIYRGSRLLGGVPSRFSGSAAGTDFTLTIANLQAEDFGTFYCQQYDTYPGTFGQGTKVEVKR", "neutralization IC50": "> 15 µg/mL"}
{"binder": "γ15κ3 (antibody, V domains shown) VH: QIHLVQSGTEVKKPGSSVTVSCKAYGVNTFGLYAVNWVRQAPGQSLEYIGQIWRWKSSASHHFRGRVIISAVDLTGSSPPISSLEIKNLTSDDTAVYFCTTASTYDKWSGLHHDGVMAFSSWGQGTLISVSA VL: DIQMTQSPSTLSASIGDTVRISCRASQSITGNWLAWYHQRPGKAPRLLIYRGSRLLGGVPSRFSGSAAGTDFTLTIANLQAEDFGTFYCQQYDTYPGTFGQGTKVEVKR", "neutralization IC50": "> 15 µg/mL"}
{"binder": "γ59κ18 (antibody, V domains shown) VH: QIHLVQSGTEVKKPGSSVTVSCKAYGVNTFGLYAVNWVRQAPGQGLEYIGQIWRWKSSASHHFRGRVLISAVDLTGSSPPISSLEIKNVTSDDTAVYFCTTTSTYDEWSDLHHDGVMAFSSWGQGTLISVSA VL: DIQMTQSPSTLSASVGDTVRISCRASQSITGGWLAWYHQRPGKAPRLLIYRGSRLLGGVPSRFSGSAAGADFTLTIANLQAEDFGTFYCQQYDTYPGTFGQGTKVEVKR", "neutralization IC50": "1.23 µg/mL"}
{"binder": "γ52κ3 (antibody, V domains shown) VH: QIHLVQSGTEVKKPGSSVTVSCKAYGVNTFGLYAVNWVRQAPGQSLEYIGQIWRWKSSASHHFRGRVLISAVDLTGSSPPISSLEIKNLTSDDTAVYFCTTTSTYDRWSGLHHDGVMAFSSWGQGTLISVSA VL: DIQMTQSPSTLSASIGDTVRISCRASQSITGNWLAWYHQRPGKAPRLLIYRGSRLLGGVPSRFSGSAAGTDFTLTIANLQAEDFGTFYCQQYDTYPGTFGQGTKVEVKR", "neutralization IC50": "> 15 µg/mL"}
{"binder": "γ3κ5 (antibody, V domains shown) VH: QIHLVQSGTEVKKPGSSVTVSCKAYGVNTFGLYAVSWVRQAPGQRLEYIGQIRRWKSSASHHFRGRVTVSAVDPTGSSPPISSLEIRDLTTDDTAVYFCTTTSTSDYWSGLHNERGTAFSSWGQGTLISVSA VL: DIQMTQSPSTLSASTGDTVRISCRASQSITGNWVAWYQQRPGKAPRLLIYRGAALLGGVPSRFRGSAAGTDFTLTIGNLQAEDFGTFYCQQYDTYPGTFGQGTKVEVKR", "neutralization IC50": "0.097 µg/mL"}
{"binder": "γ46κ18 (antibody, V domains shown) VH: QIHLVQSGTEVKKPGSSVTVSCKAYGVNTFGLYAVNWVRQAPGQGLEYIGQIWRWKSSASHHFRGRVLISAVDLTGSSPPISSLEIKNVTSDDTAVYFCTTTSTYDKWSGLHHDGVVAFSSWGQGTLISVSA VL: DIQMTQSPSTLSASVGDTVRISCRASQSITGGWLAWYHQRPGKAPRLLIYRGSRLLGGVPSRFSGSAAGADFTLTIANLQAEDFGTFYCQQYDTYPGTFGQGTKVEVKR", "neutralization IC50": "> 15 µg/mL"}
{"binder": "8ANC3430 (antibody, V domains shown) VH: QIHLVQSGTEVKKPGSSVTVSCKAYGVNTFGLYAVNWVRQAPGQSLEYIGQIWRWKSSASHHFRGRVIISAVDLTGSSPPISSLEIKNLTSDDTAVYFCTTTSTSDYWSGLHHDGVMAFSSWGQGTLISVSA VL: DIQMTQSPSTLSASVGDTVRISCRASQSITGGWLAWYHQRPGKAPRLLIYRGSRLLGGVPSRFSGSAAGTDFTLTIANLQAEDFGTFYCQQYDTYPGTFGQGTKVEVKR", "neutralization IC50": "0.198 µg/mL"}
{"binder": "γ4κ18 (antibody, V domains shown) VH: QIHLVQSGTEVKKPGSSVTVSCKAYGVNTFGLYAVNWVRQAPGQSLEYIGQIWRWKSSASHHFRGRVIISAVDLTGSSPPISPLEIKNLTSDDTAVYFCTTTSTSDRWSGLHHDGVMAFSSWGQGTLISVSA VL: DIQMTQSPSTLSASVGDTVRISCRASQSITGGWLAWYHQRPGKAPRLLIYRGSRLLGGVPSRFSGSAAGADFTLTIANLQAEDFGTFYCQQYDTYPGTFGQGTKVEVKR", "neutralization IC50": "> 15 µg/mL"}
{"binder": "γ15κ11 (antibody, V domains shown) VH: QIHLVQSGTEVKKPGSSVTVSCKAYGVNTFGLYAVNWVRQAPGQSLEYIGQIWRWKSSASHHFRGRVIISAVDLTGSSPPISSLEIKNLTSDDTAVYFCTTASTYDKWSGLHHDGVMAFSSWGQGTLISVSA VL: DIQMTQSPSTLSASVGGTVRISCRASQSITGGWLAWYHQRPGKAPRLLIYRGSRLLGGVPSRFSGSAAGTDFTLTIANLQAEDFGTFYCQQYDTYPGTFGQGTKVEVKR", "neutralization IC50": "> 15 µg/mL"}
{"binder": "γ46κ61 (antibody, V domains shown) VH: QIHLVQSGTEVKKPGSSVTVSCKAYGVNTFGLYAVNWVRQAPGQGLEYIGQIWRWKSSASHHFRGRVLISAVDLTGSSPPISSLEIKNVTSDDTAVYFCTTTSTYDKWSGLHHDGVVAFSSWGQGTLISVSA VL: DIQMTQSPSTLSASIGDTVRISCRASQSITGNWVAWYHQRPGKAPRLLIYRGAALLGGVPSRFSGSAAGTDFTLTIGNLQAEDFGTFYCQQYDTYPGTFGQGTKVEVKR", "neutralization IC50": "0.378 µg/mL"}
